test: Cytotoxicity against MDCK cells after 48 hrs by MTT assay; format: cell-based, Canis lupus familiaris; details: dog
Attribute: CC50 at 48 h

querySmiles | CC50 at 48 h
O=c1c(O)c(-c2ccc(O)cc2)oc2c(O)c(O)cc(O)c12 | 294 µM
O=c1cc(-c2ccc(O)cc2)oc2cc(O)cc(O)c12 | > 300 µM
O=c1c(O)c(-c2ccc(O)cc2)oc2cc(O)cc(O)c12 | > 300 µM

---

Attribute: CC50 at 48 h
assay: Cytotoxicity against MDCK cells after 48 hrs by MTT assay; type: cell-based, Canis lupus familiaris; conditions: dog
testReadout: CC50 at 48 h (µM)

compound | testReadout | boundSign | recordedValue
O=c1cc(-c2ccc(O)c(O)c2)oc2cc(O)cc(O)c12 | CC50 at 48 h | = | 165
COc1cc([C@H]2Oc3cc(O)c4c(=O)c(O)c(-c5ccc(O)cc5)oc4c3O[C@@H]2CO)ccc1O | CC50 at 48 h | > | 300
O=c1c(O[C@@H]2O[C@H](CO)[C@@H](O)[C@H](O)[C@H]2O)c(-c2ccc(O)cc2)oc2c(O[C@@H]3O[C@H](CO)[C@@H](O)[C@H](O)[C@H]3O)c(O)cc(O)c12 | CC50 at 48 h | > | 300
C[C@@H]1O[C@@H](Oc2cc(O)c3c(=O)c(O)c(-c4ccc(O)cc4)oc3c2O)[C@H](O)[C@H](O[C@@H]2O[C@H](CO)[C@@H](O)[C@H](O)[C@H]2O)[C@H]1O | CC50 at 48 h | = | 297
C[C@@H]1OC(Oc2cc(O)c3c(=O)c(O)c(-c4ccc(O)cc4)oc3c2O)[C@H](O)[C@H](O)[C@H]1O (stereo partly specified) | CC50 at 48 h | > | 300
O=c1c(O)c(-c2ccc(O)c(O)c2)oc2c(O)c(O)cc(O)c12 | CC50 at 48 h | = | 283

---

Attribute: pKi
target: Neuraminidase (Influenza A virus); experiment: Noncompetitive inhibition of recombinant influenza A virus rvH1N1 A/Bervig_Mission/1/18 neuraminidase
pKi: −log10 of the molar value.

compound | pKi
O=c1cc(-c2ccc(O)cc2)oc2cc(O[C@@H]3O[C@H](CO)[C@@H](O)[C@H](O)[C@H]3O)cc(O)c12 | 4.27
O=c1c(O[C@@H]2O[C@H](CO)[C@@H](O)[C@H](O)[C@H]2O)c(-c2ccc(O)cc2)oc2cc(O)cc(O)c12 | 4.48
C[C@@H]1O[C@@H](Oc2cc(O)c3c(=O)c(O)c(-c4ccc(O)cc4)oc3c2O)[C@H](O)[C@H](O[C@@H]2O[C@H](CO)[C@@H](O)[C@H](O)[C@H]2O)[C@H]1O | 4.19
O=c1c(O[C@@H]2O[C@H](CO)[C@@H](O)[C@H](O)[C@H]2O)c(-c2ccc(O)cc2)oc2c(O[C@@H]3O[C@H](CO)[C@@H](O)[C@H](O)[C@H]3O)c(O)cc(O)c12 | 4.20
C[C@@H]1OC(Oc2cc(O)c3c(=O)c(O)c(-c4ccc(O)cc4)oc3c2O)[C@H](O)[C@H](O)[C@H]1O (some centres undefined) | 4.23
O=c1c(O)c(-c2ccc(O)c(O)c2)oc2c(O)c(O)cc(O)c12 | 5.11
O=c1c(O)c(-c2ccc(O)c(O)c2)oc2cc(O)cc(O)c12 | 5.42
C[C@@H]1O[C@@H](OC[C@H]2O[C@@H](Oc3c(-c4ccc(O)cc4)oc4cc(O)cc(O)c4c3=O)[C@H](O)[C@@H](O)[C@@H]2O)[C@H](O)[C@H](O)[C@H]1O [NICOTIFLOROSIDE] | 4.49
COc1cc([C@H]2Oc3cc(O)c4c(=O)c(O)c(-c5ccc(O)cc5)oc4c3O[C@@H]2CO)ccc1O | 4.85

---

assay: Selectivity index, ratio of CC50 for MDCK cells to EC50 for influenza virus H1N1 A/PR/8/34; format: toxicity, cell-based; details: dog, read-out: Ratio CC50/EC50
Attribute: selectivity ratio
testReadout: selectivity ratio

molecule | testReadout | recordedValue
O=c1c(O[C@@H]2O[C@H](CO)[C@@H](O)[C@H](O)[C@H]2O)c(-c2ccc(O)cc2)oc2c(O[C@@H]3O[C@H](CO)[C@@H](O)[C@H](O)[C@H]3O)c(O)cc(O)c12 [LINOCINAMARIN] | selectivity ratio | > 3.03
O=c1c(O)c(-c2ccc(O)cc2)oc2cc(O)cc(O)c12 [KAEMPFEROL] | selectivity ratio | > 9.93
O=c1c(O[C@@H]2O[C@H](CO)[C@@H](O)[C@H](O)[C@H]2O)c(-c2ccc(O)cc2)oc2cc(O)cc(O)c12 [ASTRAGALIN] | selectivity ratio | > 7.5

---

Biological target: UniProt:P10481
Sequence (P10481 whole entry): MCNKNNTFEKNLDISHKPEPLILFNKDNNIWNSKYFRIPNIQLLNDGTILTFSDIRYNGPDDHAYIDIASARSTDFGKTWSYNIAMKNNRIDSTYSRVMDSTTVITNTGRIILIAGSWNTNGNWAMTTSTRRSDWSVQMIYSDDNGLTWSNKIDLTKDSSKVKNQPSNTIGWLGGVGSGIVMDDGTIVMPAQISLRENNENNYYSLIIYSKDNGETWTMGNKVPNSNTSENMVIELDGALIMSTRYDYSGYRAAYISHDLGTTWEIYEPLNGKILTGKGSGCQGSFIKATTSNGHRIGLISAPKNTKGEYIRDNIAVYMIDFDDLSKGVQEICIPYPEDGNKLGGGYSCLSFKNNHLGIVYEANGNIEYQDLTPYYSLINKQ
pIC50: −log10 of the molar value.
Attribute: pIC50
testReadout: pIC50

molecule | recordedValue
COc1cc([C@H]2Oc3cc(O)c4c(=O)c(O)c(-c5ccc(O)cc5)oc4c3O[C@@H]2CO)ccc1O | 5.21
C[C@@H]1O[C@@H](OC[C@H]2O[C@@H](Oc3c(-c4ccc(O)cc4)oc4cc(O)cc(O)c4c3=O)[C@H](O)[C@@H](O)[C@@H]2O)[C@H](O)[C@H](O)[C@H]1O [NICOTIFLOROSIDE] | 4.26
O=c1cc(-c2ccc(O)cc2)oc2cc(O[C@@H]3O[C@H](CO)[C@@H](O)[C@H](O)[C@H]3O)cc(O)c12 | 4.41
O=c1c(O)c(-c2ccc(O)cc2)oc2cc(O)cc(O)c12 | 5.10
O=c1c(O)c(-c2ccc(O)cc2)oc2c(O)c(O)cc(O)c12 | 5.85

---

assay: Selectivity index, ratio of CC50 for MDCK cells to EC50 for influenza virus H9N2 A/Chicken/Korea/MS96/96; assay type: toxicity, cell-based; settings: dog, read-out: Ratio CC50/EC50
testReadout: selectivity ratio

molecule | recordedValue
O=c1c(O[C@@H]2O[C@H](CO)[C@@H](O)[C@H](O)[C@H]2O)c(-c2ccc(O)cc2)oc2c(O[C@@H]3O[C@H](CO)[C@@H](O)[C@H](O)[C@H]3O)c(O)cc(O)c12 | > 3
O=c1c(O)c(-c2ccc(O)cc2)oc2cc(O)cc(O)c12 | > 16.2
C[C@@H]1OC(Oc2cc(O)c3c(=O)c(O)c(-c4ccc(O)cc4)oc3c2O)[C@H](O)[C@H](O)[C@H]1O (some centres not stated) | > 6.05
O=c1cc(-c2ccc(O)cc2)oc2cc(O)cc(O)c12 | > 7.03
O=c1c(O[C@@H]2O[C@H](CO)[C@@H](O)[C@H](O)[C@H]2O)c(-c2ccc(O)cc2)oc2cc(O)cc(O)c12 | > 4.85
C[C@@H]1O[C@@H](OC[C@H]2O[C@@H](Oc3c(-c4ccc(O)cc4)oc4cc(O)cc(O)c4c3=O)[C@H](O)[C@@H](O)[C@@H]2O)[C@H](O)[C@H](O)[C@H]1O [NICOTIFLOROSIDE] | > 4.12
COc1cc([C@H]2Oc3cc(O)c4c(=O)c(O)c(-c5ccc(O)cc5)oc4c3O[C@@H]2CO)ccc1O | > 10.2

---

Attribute: selectivity ratio
test: Selectivity index, ratio of CC50 for MDCK cells to EC50 for influenza virus H1N1 A/PR/8/34; format: toxicity, cell-based; settings: dog, read-out: Ratio CC50/EC50
testReadout: selectivity ratio

molecule | recordedValue
COc1cc([C@H]2Oc3cc(O)c4c(=O)c(O)c(-c5ccc(O)cc5)oc4c3O[C@@H]2CO)ccc1O [RHODIOLININ] | > 7.19
O=c1cc(-c2ccc(O)cc2)oc2cc(O)cc(O)c12 [APIGENIN] | > 4.97
C[C@@H]1O[C@@H](OC[C@H]2O[C@@H](Oc3c(-c4ccc(O)cc4)oc4cc(O)cc(O)c4c3=O)[C@H](O)[C@@H](O)[C@@H]2O)[C@H](O)[C@H](O)[C@H]1O [NICOTIFLOROSIDE] | > 7.48
C[C@@H]1OC(Oc2cc(O)c3c(=O)c(O)c(-c4ccc(O)cc4)oc3c2O)[C@H](O)[C@H](O)[C@H]1O (some centres undefined) [RHODIONIN] | > 4.01
